test.target: UniProt Q9UGN5
Sequence (Q9UGN5 whole entry, the tested form may be a part): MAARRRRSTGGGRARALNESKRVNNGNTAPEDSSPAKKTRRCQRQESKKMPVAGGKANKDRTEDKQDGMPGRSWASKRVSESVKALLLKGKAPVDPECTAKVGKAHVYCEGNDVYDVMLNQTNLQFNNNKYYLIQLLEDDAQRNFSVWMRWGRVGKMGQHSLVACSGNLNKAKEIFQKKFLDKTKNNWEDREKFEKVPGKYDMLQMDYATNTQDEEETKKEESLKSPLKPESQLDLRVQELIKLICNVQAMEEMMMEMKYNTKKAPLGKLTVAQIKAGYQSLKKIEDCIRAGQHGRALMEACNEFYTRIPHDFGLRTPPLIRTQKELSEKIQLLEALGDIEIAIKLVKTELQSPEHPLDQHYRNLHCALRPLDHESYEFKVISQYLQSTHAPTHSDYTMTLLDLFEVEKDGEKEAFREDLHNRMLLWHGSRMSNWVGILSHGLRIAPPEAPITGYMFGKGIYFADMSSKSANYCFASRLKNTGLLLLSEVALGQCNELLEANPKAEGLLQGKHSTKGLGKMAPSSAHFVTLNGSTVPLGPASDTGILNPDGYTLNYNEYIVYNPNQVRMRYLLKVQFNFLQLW
assay.protocol: Inhibition of N-terminal His-tagged thioredoxin-fused human ARTD2 (1 to 583 residues) expressed in Escherichia coli Rosetta2 (DE3) using activated DNA as substrate after 1.5 hrs in presence of NAD+
Below: a set of entries, each annotated with reported IC50.

What measured IC50 is associated with `NC(=O)c1ccc(Oc2ccc(C=O)cc2)cc1` on UniProt Q9UGN5? > 100 µM

What reported IC50 corresponds to `NC(=O)c1ccc(OCc2ccccc2F)cc1` on UniProt Q9UGN5? > 100 µM

Give UniProt Q9UGN5 IC50 for `COc1ccc(C(N)=O)cc1` 77 µM

---
Look up IC50 with UniProt Q9UGN5 for this molecule: `NC(=O)c1ccc(Oc2ccc(C(=O)O)cc2)cc1` > 100 µM

Origin of the recorded values: ChEMBL document CHEMBL4270552
